We begin with a simple list: items and their reported viability, T/C.
Tested on: 883617-216-R-J1-PDC complex spheroids, growth, % test/control;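 further: exposure lasted 7 days after dosing on day 3 of spheroid growth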
Test: Anticancer human tumor 883617-216-R-J1-PDC patient-derived bladder carcinoma cell line growth inhibition [AhR]
Details: second compound 1 µM; first compound 0.0316 µM; stronger effect = lower value
Numeric answer only, unit % assumed.

{"molecule": "COc1cc(C2c3cc4c(cc3C(OC3OC5COC(C)OC5C(O)C3O)C3COC(=O)C23)OCO4)cc(OC)c1O (stereo unspecified) + CC(CO)NC(=O)c1cc(-c2ccc(Cl)cc2)nn(-c2cnn(C)c2)c1=O", "endpoint": "viability, T/C", "quantity.unit": "%", "value": 60.3}
{"molecule": "COc1cc(Nc2ncc3c(n2)-c2ccc(Cl)cc2C(c2c(F)cccc2OC)=NC3)ccc1C(=O)O + Cc1ccccc1N=Nc1ccc(NC(=O)c2ccnn2C)c(C)c1", "endpoint": "viability, T/C", "quantity.unit": "%", "value": 73.9}
{"molecule": "O=C(c1cc(Cc2n[nH]c(=O)c3ccccc23)ccc1F)N1CCN(C(=O)C2CC2)CC1 + CC(CO)NC(=O)c1cc(-c2ccc(Cl)cc2)nn(-c2cnn(C)c2)c1=O", "endpoint": "viability, T/C", "quantity.unit": "%", "value": 122}
{"molecule": "COc1ccc([C@@H](O)c2cc(-c3ncnc4cc(N5CCOCC5)ccc34)c(F)cc2Cl)nn1 + Cc1cncc(-c2nc(NCCc3c[nH]c4ccccc34)c3ncn(C(C)C)c3n2)c1", "endpoint": "viability, T/C", "quantity.unit": "%", "value": 100}
{"molecule": "COc1cc(Nc2ncc3c(n2)-c2ccc(Cl)cc2C(c2c(F)cccc2OC)=NC3)ccc1C(=O)O + CC(CO)NC(=O)c1cc(-c2ccc(Cl)cc2)nn(-c2cnn(C)c2)c1=O", "endpoint": "viability, T/C", "quantity.unit": "%", "value": 124}

Now look at this entry.
Enquiry: # lookup: viability, T/C of Nc1ncn(C2CC(O)C(CO)O2)c(=O)n1 (stereo unspecified) + Cc1ccccc1N=Nc1ccc(NC(=O)c2ccnn2C)c(C)c1
Return: 101
